This listing pairs molecules with measured IC50.
Biological target: cAMP phosphodiesterase (Canis familiaris)
Test: Inhibition of canine cardiac cAMP phosphodiesterase (cAMP-PDE)
Field format: number, assumed µM, no unit text.

Below, each entry is followed by its recorded IC50 result.
- smiles-text: "CCCc1nccn1-c1ccc(C(=O)c2[nH]c(O)nc2CC)cc1"
  IC50 (µM): 29
- smiles-text: "CCc1[nH]c(O)nc1C(=O)c1ccc(Cn2ccnc2)cc1"
  IC50 (µM): 30
- smiles-text: "CCc1[nH]c(O)nc1C(=O)c1ccc(-n2ccnc2CCC(C)C)cc1"
  IC50 (µM): 7
- smiles-text: "Cc1[nH]c(O)nc1C(=O)c1ccc(-c2ncc[nH]2)cc1"
  IC50 (µM): 27
- smiles-text: "CCc1[nH]c(O)nc1C(=O)c1ccc(-n2ccnc2)c(C)c1"
  IC50 (µM): 2
- smiles-text: "CCc1[nH]c(O)nc1C(=O)c1cccc(-n2ccnc2)c1"
  IC50 (µM): 23
- smiles-text: "CCc1[nH]c(O)nc1C(=O)c1ccc(-n2ccnc2CC)cc1"
  IC50 (µM): 25
- smiles-text: "CCc1[nH]c(O)nc1C(=O)c1ccc(-n2ccnc2C)c(C)c1"
  IC50 (µM): 2
- smiles-text: "Cc1[nH]c(O)nc1C(=O)c1ccc(-n2ccnc2C)cc1"
  IC50 (µM): 30
- smiles-text: "CCc1[nH]c(O)nc1C(=O)c1ccc(-n2ccnc2)cc1"
  IC50 (µM): 2

Value wanted: IC50 (cAMP phosphodiesterase (Canis familiaris)) of entry Cc1[nH]c(O)nc1C(=O)c1ccc(-n2ccnc2CO)cc1 49

Notebook entry, cAMP phosphodiesterase (Canis familiaris) assay: IC50 of CCc1[nH]c(O)nc1C(=O)c1ccc(-n2ccnc2)cc1C = ? 4

Notebook: pull reported IC50 for cAMP phosphodiesterase (Canis familiaris), entry CCc1[nH]c(O)nc1C(=O)c1ccc(-c2ncc[nH]2)cc1 15

# returns recorded IC50 (system: cAMP phosphodiesterase (Canis familiaris)) for Cc1[nH]c(O)nc1C(=O)c1ccc(-n2ccnc2)cc1 6
